Target: human NMUR2 (human, UniProt Q9GZQ4 1-415)
Sequence (Q9GZQ4 whole entry): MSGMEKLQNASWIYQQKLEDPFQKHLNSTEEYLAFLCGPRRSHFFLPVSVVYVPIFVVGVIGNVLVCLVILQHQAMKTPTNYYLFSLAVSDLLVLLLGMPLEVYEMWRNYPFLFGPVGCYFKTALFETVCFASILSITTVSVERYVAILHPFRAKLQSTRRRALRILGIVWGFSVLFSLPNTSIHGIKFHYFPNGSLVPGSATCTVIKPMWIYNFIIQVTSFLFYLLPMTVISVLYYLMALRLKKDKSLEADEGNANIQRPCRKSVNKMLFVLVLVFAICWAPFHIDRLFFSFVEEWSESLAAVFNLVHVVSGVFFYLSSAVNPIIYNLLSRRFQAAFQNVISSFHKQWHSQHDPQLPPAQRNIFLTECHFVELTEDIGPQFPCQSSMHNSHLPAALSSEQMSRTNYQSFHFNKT
Assay: cell-based or functional assay
Non-standard residues stand in square brackets, D forms with d. No end group written: not given here.

binder | % activity (%)
YF[dA]WRPRN-NH2 (N-terminus assumed; SMILES C[C@@H](NC(=O)[C@H](Cc1ccccc1)NC(=O)[C@@H](N)Cc1ccc(O)cc1)C(=O)N[C@@H](Cc1c[nH]c2ccccc12)C(=O)N[C@@H](CCCNC(=N)N)C(=O)N1CCC[C@H]1C(=O)N[C@@H](CCCNC(=N)N)C(=O)N[C@@H](CC(N)=O)C(N)=O) [neuromedin U receptor agonist D] | 0
